# targetOrSystem: T1, IRF4 DBD S114R (Homo sapiens, UniProt Q15306 20-132, S114R)
# T1 sequence: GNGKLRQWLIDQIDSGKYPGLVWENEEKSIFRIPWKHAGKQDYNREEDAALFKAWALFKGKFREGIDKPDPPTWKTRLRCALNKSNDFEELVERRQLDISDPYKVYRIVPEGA
# measurementNotes: SPR two-state kinetic; FP: PBS + 0.05% Tween20, 5 nM DNA, 1 h, room temperature; SPR: Biacore S200, SA chip, protein 0.1-4500 nM, running buffer not given in material; errors are SD
# conditionLabel: protein: recombinant; tags: N-terminal His8-linker-His8-TEV, cleaved; label: 3' biotin; hairpin, TTTT loop
reportedProperty: Kd (nM)

binder="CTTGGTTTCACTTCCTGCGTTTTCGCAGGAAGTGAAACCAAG (structured_DNA) [IRE hairpin (biotin)]" unitname=nM measuredresult=49
